Observable: melting point

Past entries and their recorded results:
CC(=C1SC(=O)NC1=O)c1ccc(OCCOc2c(-c3ccc(F)cc3)n(C)c3cc(Cl)ccc3c2=O)cc1 | 292 to 296 °C
CCOC(=O)CCc1c(-c2cc(Cl)ccc2OC)c2cc(C(F)(F)F)ccc2[nH]c1=O | 193 to 195 °C
CN1CCN(c2cccc3c2C[C@H](NC(=O)c2ccc(C4CCCCC4)cc2)CC3)CC1 | 224 to 226 °C
O=C1CC(Cl)C(=O)N1c1ccccc1 (stereo unspecified) | 117 to 118 °C
COc1ccc(OCc2ccc(C(=O)c3ccccc3)cc2)cc1OC | 74 to 75 °C
COC(=O)c1nc(NC(=O)CCCOc2cccc(CN3CCCCC3)c2)n(C)n1 | 108 to 110 °C
COc1cc(C2CC(=O)NC(=O)C2)cc2c(C)c(C)oc12 | 220 to 222 °C
CCN(CC)C(=O)c1ccoc1-c1ccc(Cl)cc1 | 64 to 66 °C
COc1cccc(C2CNC(=O)C2c2cn3c4c(cccc24)CCC3)c1 (stereo unspecified) | 191 to 194 °C
CC(NC1=NS(=O)(=O)c2cc(Br)ccc2N1)C(C)(C)C (stereo unspecified) | > 220 °C

Let's switch to this compound now.
Enquiry: Look up melting point: `Cn1nc2c(oc3ccccc32)c1NC=O`
Return: 184 to 187 °C
